src = patent US10556907B2

- subject.of.test: human EDG8 (S1PR5) receptor (Homo sapiens, UniProt Q9H228)
- Construct: expressed in transfected cells; host or cells: CHO (clone CHO-A21-EDG8 #12)
- Sequence (Q9H228 whole entry): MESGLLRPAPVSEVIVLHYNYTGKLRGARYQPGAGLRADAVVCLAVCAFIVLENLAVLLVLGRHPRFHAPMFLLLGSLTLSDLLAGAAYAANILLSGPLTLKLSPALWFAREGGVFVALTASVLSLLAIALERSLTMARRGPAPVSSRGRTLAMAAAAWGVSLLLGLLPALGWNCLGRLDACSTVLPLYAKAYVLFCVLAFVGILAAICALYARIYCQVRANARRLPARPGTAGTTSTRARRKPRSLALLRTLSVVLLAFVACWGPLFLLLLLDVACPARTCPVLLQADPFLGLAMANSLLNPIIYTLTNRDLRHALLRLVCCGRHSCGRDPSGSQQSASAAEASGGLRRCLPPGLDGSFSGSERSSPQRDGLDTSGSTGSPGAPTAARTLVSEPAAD
- assay.summary: Method 2: Aequorin assay, cell clone CHO-A21-EDG8 #12
- Format: cell-based
- stated.conditions: agonist potency, determined with method 2 (symbols E-G); read-out: S1P5 EC50 range
pEC50: −log10 of the molar value.
Measured pEC50 accompanies every entry in the list below.

>>> endpoint_result("Cc1cc(OCc2ccccc2)ccc1-c1ccc2c(n1)CCN(CCC(=O)O)C2 [Compound 135]")
"5.00 to 6.00"
>>> endpoint_result("O=C(O)CCN1Cc2ccc(-c3ccc(OCc4ccccc4)cc3)nc2C1 [Compound 202]")
"5.00 to 6.00"
>>> endpoint_result("O=C(O)CCN1CCc2nc(-c3ccc(OCc4ccccc4)cc3F)ccc2C1 [Compound 134]")
"> 7.00"

Now, please, on to the next compound.
What does the data say about its pEC50? Entry: O=C(O)CCN1CCc2nc(-c3ccc(OCc4ccc(F)cc4)c(Cl)c3)ccc2C1 [Compound 140] 6.00 to 7.00
